Assay: Nuclear factor erythroid 2-related factor 2/antioxidant responsive element (Nrf2/ARE) small molecule agonists: qHTS cell viability counter screen in human keratinocytes (AID 1919968); note: nearly all actives have a fitted effect of over 55% in size
Details: KeratinoSens HaCaT ARE cells viability, CellTiter-Fluor, 24 h; series mostly up to 92.4 µM
Results filed as inconclusive are left out. Active and inactive are the calls of the source. Calls come from the whole dose curve; as a rule, active = well fitted cell-killing curve with a large enough effect in the repeat runs; inconclusive = weak or mixed curves, or effect the other way; inactive = flat fitted curve, though single readings scatter.
Returns: one label drawn from yes (1) = active, no (0) = inactive

Worked cases, answers included:
| given_smiles | answer_label |
| --- | --- |
| O=C(Cc1ccccc1)OCc1ccccc1 | no (0) |
| O=[N+]([O-])c1cccc(CCl)c1 | no (0) |
| CCNC(=O)NC(=O)/C(C#N)=N/OC | no (0) |
| Cc1nnc2n1-c1sc(CCC(=O)N3CCOCC3)cc1C(c1ccccc1Cl)=NC2 | no (0) |
| COc1ccc(C(c2ccc(OC)cc2)C(Cl)(Cl)Cl)cc1 | yes (1) |

Recorded test outcome, item "C=CCOC(=O)c1ccccc1N"
no (0)
